B1: scFv; the commonest letter at each place (parent)
chain 1: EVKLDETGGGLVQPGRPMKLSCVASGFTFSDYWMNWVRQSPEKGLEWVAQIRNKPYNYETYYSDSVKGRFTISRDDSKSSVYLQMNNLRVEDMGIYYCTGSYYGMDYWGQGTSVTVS
chain 2: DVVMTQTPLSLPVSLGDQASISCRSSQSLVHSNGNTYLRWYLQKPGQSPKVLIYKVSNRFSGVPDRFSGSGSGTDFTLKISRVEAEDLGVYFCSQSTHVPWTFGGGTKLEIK

Variants of: B1
experiment.description: yeast surface expression (ratio to wild type); higher = more expressed
test.context: format: scFv 4-4-20, heavy + light
assay.metric: yeast surface expression

>  <mutation.key>
chain 1 M105G G109S

>  <yeast surface expression>
0.794

$$$$
>  <mutation.key>
chain 1 N35S W36Y

>  <yeast surface expression>
0.787

$$$$
>  <mutation.key>
chain 1 Y102E G104N

>  <yeast surface expression>
0.819

$$$$

Supply reported yeast surface expression belonging to this variant: chain 1 F29M S30H Y32S
0.982
